FYI, the data here is from paper PMC11790914.

biological target: MAPK1 (Homo sapiens); construct: made in house; assay: Liability panel screening by DSF: MAPK1; format: binding; conditions: DSF, 20 µM, n=2; read-out: Mean ΔTM MAPK1
Sequence (P28482 whole entry, species assumed): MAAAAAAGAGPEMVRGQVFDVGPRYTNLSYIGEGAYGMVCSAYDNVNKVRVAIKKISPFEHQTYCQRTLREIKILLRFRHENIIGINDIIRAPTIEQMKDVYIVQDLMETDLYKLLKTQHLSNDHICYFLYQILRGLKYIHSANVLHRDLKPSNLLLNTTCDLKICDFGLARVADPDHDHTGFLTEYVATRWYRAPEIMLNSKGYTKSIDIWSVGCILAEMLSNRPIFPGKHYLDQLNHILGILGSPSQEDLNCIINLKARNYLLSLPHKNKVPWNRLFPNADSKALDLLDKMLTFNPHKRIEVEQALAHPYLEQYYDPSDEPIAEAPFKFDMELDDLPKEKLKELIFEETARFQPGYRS
Classify: T when ΔTm at 20 µM is strictly less than -0.9 °C; F when ΔTm at 20 µM is not.

molecule="CC/C(=C(/c1ccc(/C=C/C(=O)O)cc1)c1ccc2[nH]ncc2c1)c1ccc(F)cc1Cl [ARN810]" category=F
molecule="CCCC1O[C@@H]2C[C@H]3[C@@H]4CCC5=CC(=O)C=C[C@]5(C)[C@H]4[C@@H](O)C[C@]3(C)[C@]2(C(=O)CO)O1 (stereo partly shown) [Budesonide]" category=F
molecule="N#Cc1ccc(N2N=C3c4ccc(C(=O)O)cc4CC[C@@H]3[C@@H]2C2CCCC2)cc1Cl [PF-03882845]" category=T
molecule="CC(C)c1ccc(/C=N/NC(=O)c2ccc(O)cc2)cc1 [GSK4716]" category=F
molecule="O=C(/C=C/c1ccc(O)cc1)c1ccc(O)cc1O [Isoliquiritigenin]" category=F
molecule="CC(=O)O[C@]1(C(C)=O)CC[C@H]2[C@@H]3CCC4=CC(=O)CCC4=C3[C@@H](c3ccc(N(C)C)cc3)C[C@@]21C [Ulipristal acetate]" category=F
molecule="C#C[C@]1(O)CC[C@H]2[C@@H]3CCc4cc(O)ccc4[C@H]3CC[C@@]21C [Ethinylestradiol]" category=F
molecule="COc1cccc([C@@H](Oc2ccc3c(cnn3-c3ccc(F)cc3)c2)[C@H](C)NC(=O)C(F)(F)F)c1 [AZD5423]" category=T
molecule="CCN(CC)c1ccc(/C=N/NC(=O)c2ccc(O)cc2)cc1 [DY131]" category=F
molecule="Oc1ccc(-c2c(-c3ccccc3)nn3c(C(F)(F)F)cc(C(F)(F)F)nc23)cc1 [PHTPP]" category=F
molecule="CC/C(=C(/CC)c1ccc(O)cc1)c1ccc(O)cc1 [Diethylstilbestrol]" category=T
molecule="C[C@]12CC[C@@H]3c4ccc(O)cc4C[C@@H](CCCCCCCCC[S+]([O-])CCCC(F)(F)C(F)(F)F)[C@H]3[C@@H]1CC[C@@H]2O (stereo partly shown) [Fulvestrant]" category=T

====

tested on: NF-κB activity in HEK293 NF-κB reporter cells; assay: NF-kB activity assay (GFP reporter, ionomycin/PMA); format: cell-based; settings: 1 µM, 15 h, n=3
In this section, each of the compounds is paired with its reported Mean NFκB response.
Measured Attribute: Mean NFκB response

compound="CC(=O)O[C@]1(C(C)=O)CC[C@H]2[C@@H]3CCC4=CC(=O)CCC4=C3[C@@H](c3ccc(N(C)C)cc3)C[C@@]21C [Ulipristal acetate]" val="28280.00 GFP+-cells/confluence ∙ 1000"
compound="O=S(=O)(Cc1ccccc1)Nc1ccc(-c2ccc3c(cnn3-c3ccc(F)cc3)c2)c(C(F)(F)F)c1 [GSK9027]" val="12593.25 GFP+-cells/confluence ∙ 1000"
compound="CNC(=O)c1ccc(N2C(=S)N(c3ccc(C#N)c(C(F)(F)F)c3)C(=O)C2(C)C)cc1F [Enzalutamide]" val="31096.67 GFP+-cells/confluence ∙ 1000"
compound="COc1ccc2c(c1)OC(C)(C)C(c1ccccc1)C2c1ccc(OCCN2CCCC2)cc1 (stereo not drawn) [Ormeloxifene]" val="33826.67 GFP+-cells/confluence ∙ 1000"
compound="C[C@]1(O)CC[C@H]2[C@@H]3CCC4=CC(=O)CCC4=C3C=C[C@@]21C [Methyltrienolone]" val="28114.67 GFP+-cells/confluence ∙ 1000"
compound="C[C@]12CCC(=O)C=C1CC[C@@H]1[C@@H]2[C@@H](O)C[C@]2(C=O)[C@@H](C(=O)CO)CC[C@@H]12 [Aldosterone]" val="22438.14 GFP+-cells/confluence ∙ 1000"
compound="COc1cc(/C=C(\\C#N)C(=O)Nc2nnc(C(F)(F)F)s2)ccc1OCc1ccc(C(F)(F)F)cc1C(F)(F)F [XCT790]" val="27150.00 GFP+-cells/confluence ∙ 1000"
compound="COC(=O)[C@@H]1CC2=CC(=O)CC[C@]2(C)[C@@]23O[C@@H]2C[C@@]2(C)[C@@H](CC[C@@]24CCC(=O)O4)[C@H]13 [Eplerenone]" val="27316.67 GFP+-cells/confluence ∙ 1000"
compound="Cc1c(-c2ccc(O)cc2)n(Cc2ccc(OCCN3CCCCCC3)cc2)c2ccc(O)cc12 [Bazedoxifene]" val="21680.82 GFP+-cells/confluence ∙ 1000"
compound="CC(=O)OCC(=O)[C@@]1(O)CC[C@H]2[C@@H]3CCC4=CC(=O)CC[C@]4(C)[C@@]3(F)[C@@H](O)C[C@@]21C [Fludrocortisone acetate]" val="10595.86 GFP+-cells/confluence ∙ 1000"
compound="C[C@H]1C[C@H]2[C@@H]3CCC4=CC(=O)C=C[C@]4(C)[C@@]3(Cl)[C@@H](O)C[C@]2(C)[C@@]1(O)C(=O)CO [Beclomethasone]" val="12732.70 GFP+-cells/confluence ∙ 1000"
compound="O=C(/C=C/c1ccc(O)cc1)c1ccc(O)cc1O [Isoliquiritigenin]" val="32050.00 GFP+-cells/confluence ∙ 1000"
compound="CC[C@@H]1Cc2cc(O)ccc2C2=C1c1ccc(O)cc1C[C@H]2CC [(R,R)-THC]" val="30888.37 GFP+-cells/confluence ∙ 1000"
compound="CCCc1c(-c2ccc(O)cc2)nn(-c2ccc(O)cc2)c1-c1ccc(O)cc1 [Propylpyrazoletriol]" val="30496.67 GFP+-cells/confluence ∙ 1000"
compound="Cc1c(N2C(=O)C3C(O)CCN3C2=O)ccc(C#N)c1Cl (stereo not drawn) [BMS564929]" val="19226.67 GFP+-cells/confluence ∙ 1000"
